Target: human C5 protein (human, UniProt P01031 19-673; P01031 678-1676)
Test: cell-based or functional assay
Positions of bridges follow the written chain, without caps; N, C: chain ends. Non-standard residues stand in square brackets, D forms with d. Primed or numbered codes have the meaning given here. No end group written: not given here. mXylyl(5) = bridging moiety between the two residues (meta-xylyl); mXylyl = bridging moiety between residues (mXylyl(i,j)); Trp(7-aza) = N[C@@H](Cc1c[nH]c2ncccc12)C(=O)O; NMePhe(4-F) = CN[C@@H](Cc1ccc(F)cc1)C(=O)O; Phg = N[C@H](C(=O)O)c1ccccc1; NMeS = CN[C@@H](CO)C(=O)O; Nva = CCC[C@H](N)C(=O)O
assay.endpoint: Avg. IC50, human hemolysis assay (complete human sera)

Below, each entry is followed by its recorded Avg. IC50, human hemolysis assay (complete human sera) result.
{"binder": "Ac-[Nva]C[Phg]T[Trp(7-aza)]EY[NMeS]HC[Nva]-NH2 (bridge 2-10) [R3042]", "result.value": "> 100 µM"}
{"binder": "[Nva]CY[NMeS][Phg][NMePhe(4-F)][NMeS]H[NMePhe(4-F)]GC-NH2 (linker 2-11 via mXylyl(5)) [R3075]", "result.value": "> 75 µM"}

Kindly review the next binder as well.
Look up Avg. IC50, human hemolysis assay (complete human sera): MCVERFCDVYW-NH2 (linker 2-7 via mXylyl) [R3044] > 50 µM
